Values compiled from patent US5846720A.

Test system: G-CSF promoter
Assay Protocol: G-CSF promoter/luciferase reporter assay (high-throughput screen I), G21 cells
Condition Notes: transcriptional activators, Table 2; 6 h incubation
Mark 1.0 only for GCSF fold induction relative to solvent control values smaller than 3 fold; exact matches and larger values are 0.0.

>  <Compound>
CC(C=O)=CC=CC(C)=CC=CC=C(C)C=CC=C(C)C=CC1=C(C)CCCC1(C)C [Chemical 519]

>  <Group Label>
1.0

$$$$
>  <Compound>
CC(=O)N(C)c1ccc(N)cc1 [Chemical #1374, 4'-Amino-N-methyl-acetanilide]

>  <Group Label>
0.0

$$$$
>  <Compound>
CN(C)c1ccc(C(=C2C=CC(=[N+](C)C)C=C2)c2ccc([N+](C)(C)C)cc2)cc1 [Chemical 670]

>  <Group Label>
0.0

$$$$
>  <Compound>
CCCCCCCCCCCCCCCC(=O)OCC(COC(=O)CCCCCCCCCCCCCCC)OC(=O)CCCCCCCCCCCCCCC [Chemical 856]

>  <Group Label>
1.0

$$$$
>  <Compound>
ClCCCCCBr [Chemical 2097]

>  <Group Label>
0.0

$$$$
>  <Compound>
N=c1ccc2nc3ccc(N)cc3sc-2c1 [Chemical 836]

>  <Group Label>
0.0

$$$$

Request: Quick check: GCSF fold induction relative to solvent control of CCN(CC)CCCC(C)Nc1c2ccc(Cl)cc2nc2ccc(OC)cc12 (stereo not drawn) [Chemical 423] under 3 fold?
Response: 1.0

Request: # strict comparison: is reported GCSF fold induction relative to solvent control < 3 fold? input = N=c1cc2oc3cc(N)ccc3nc-2c2ccccc12 [Chemical 1776]
Response: 0.0

Request: Field: below-cutoff. Rule: recorded GCSF fold induction relative to solvent control strictly less than 3 fold. Subject: Brc1cccc(-c2ccccc2)c1 [Chemical 1994]
Response: 0.0

Request: Strictly below 3 fold in GCSF fold induction relative to solvent control? Nc1c(Cl)c(Cl)nc(C(=O)O)c1Cl [Chemical 1561]
Response: 1.0

---

Quick list: GCSF fold induction relative to solvent control per entry.
Tested on: G-CSF promoter
Assay Protocol: G-CSF promoter/luciferase reporter assay (high-throughput screen I), G21 cells
Condition Notes: transcriptional activators, Table 2; 6 h incubation
All answers are understood in fold, so give the number only.

>  <Molecule>
CC(=O)c1c(C)cc(NC(C)(C)C)nc1NC(C)(C)C [Chemical 40]

>  <Unit Info>
fold

>  <Result>
5.62

$$$$
>  <Molecule>
Nc1ccc(S(=O)(=O)O)c2cccc(O)c12 [Chemical 1337]

>  <Unit Info>
fold

>  <Result>
0.07

$$$$
>  <Molecule>
Clc1cc(Cl)cc(Br)c1 [Chemical 1255]

>  <Unit Info>
fold

>  <Result>
6.74

$$$$
>  <Molecule>
Nc1nccs1 [Chemical 1550]

>  <Unit Info>
fold

>  <Result>
0.04

$$$$
>  <Molecule>
CCOC(=O)N1C(=O)c2ccccc2C1=O [Chemical 237]

>  <Unit Info>
fold

>  <Result>
4.77

$$$$
>  <Molecule>
O=C(Nc1cccc(C2=NCCN2)c1)Nc1cccc(C2=NCCN2)c1 [Chemical 1598]

>  <Unit Info>
fold

>  <Result>
0.72

$$$$

Request: What value of GCSF fold induction relative to solvent control has been recorded for this entry: Cc1c(C2(c3cc(Br)c(O)c(Br)c3C)OS(=O)(=O)c3ccccc32)cc(Br)c(O)c1Br [Chemical 1251]
Response: 0.14

Request: Which value of GCSF fold induction relative to solvent control has been reported for Cc1cc(N)sn1 [Chemical 1397] in the records?
Response: 3.63

Request: Fill blank: measured GCSF fold induction relative to solvent control of the molecule CC1(C)[C@@H](C(=O)OCC(F)(F)C(F)(F)C(F)(F)C(F)(F)C(F)(F)C(F)F)CC[C@@]1(C)C(=O)OCC(F)(F)C(F)(F)C(F)(F)C(F)(F)C(F)(F)C(F)F [Chemical 1592] is ____.
Response: 3.20

---

Measured MMTV fold induction relative to solvent control values are reported for all entries that follow.
System: MMTV promoter
Assay Protocol: MMTV promoter/luciferase reporter assay (high-throughput screen I, control for specificity), M10 cells
Type: cell-based, mouse
Condition Notes: transcriptional activators, Table 2; original high-throughput assay; 6 h incubation
The answer is to be given in fold; state only the numeric part.

Solved entries:
>  <Molecule>
Nc1ccc(S(=O)(=O)O)c2cccc(O)c12

>  <Unit Info>
fold

>  <Result>
0.23

$$$$
>  <Molecule>
Nc1nc(=O)n([C@H]2C[C@H](O)[C@@H](CO)O2)cc1Br

>  <Unit Info>
fold

>  <Result>
1.26

$$$$
>  <Molecule>
NCc1ccc(S(N)(=O)=O)cc1

>  <Unit Info>
fold

>  <Result>
1.37

$$$$

Request: Could you tell me which MMTV fold induction relative to solvent control is on file for COc1ccc(CC(=O)O)cc1OC ?
Response: 2.48

Request: Could you tell me which MMTV fold induction relative to solvent control is on file for Brc1cccc(-c2ccccc2)c1 ?
Response: 0.63

Request: For CCN(CC)CCCC(C)Nc1c2ccc(Cl)cc2nc2ccc(OC)cc12 (stereo not drawn) , what is its reported MMTV fold induction relative to solvent control?
Response: 0.64

Request: I'd like to know its MMTV fold induction relative to solvent control. The molecule in question is CC(=O)n1ccnc1
Response: 0.42

Request: What measured MMTV fold induction relative to solvent control goes with Brc1ccc2c3c(cccc13)CC2 ?
Response: 4.30

Request: Can you look up the measured MMTV fold induction relative to solvent control of NC1=NCCS1 for me?
Response: 0.52

Request: Quick check: MMTV fold induction relative to solvent control of N=c1ccc2nc3ccc(N)cc3sc-2c1 ?
Response: 0.58

Request: Please give the measured MMTV fold induction relative to solvent control for this molecule: CC(=O)c1c(C)cc(NC(C)(C)C)nc1NC(C)(C)C
Response: 0.27

Request: Sample Nc1nc(N)nc(N)n1 — what was its MMTV fold induction relative to solvent control?
Response: 1.07

---

System: G-CSF promoter
Assay Protocol: G-CSF promoter/luciferase reporter assay (high-throughput screen I), G21 cells
Condition Notes: transcriptional inhibitors, Table 2; 6 h incubation
Think of 0.8 fold as a floor: if GCSF fold inhibition relative to solvent control stands on it or above, it is MET; beneath it, NOT MET.

>  <Compound>
O=c1c(O)c(-c2ccc(O)cc2O)oc2cc(O)cc(O)c12 [Chemical 371]

>  <Group Label>
MET

$$$$

Request: State whether the measured GCSF fold inhibition relative to solvent control reaches 0.8 fold, counting equality as reaching it, for O=S(=O)(O)c1ccc(-c2nnc(-c3ccnc(-c4nnc(-c5ccc(S(=O)(=O)O)cc5)c(-c5ccc(S(=O)(=O)O)cc5)n4)c3)nc2-c2ccc(S(=O)(=O)O)cc2)cc1 [Chemical 1604]
Response: NOT MET

Request: // inclusive: GCSF fold inhibition relative to solvent control at least 0.8 fold? input: CC1(C)[C@H]2CC[C@]1(C)[C@H](O)C2 [Chemical 1635]
Response: NOT MET

Request: GCSF fold inhibition relative to solvent control >= 0.8 fold for c1ccc(-c2nccnc2-c2ccccn2)nc1 [Chemical 1641] ?
Response: MET

Request: Is the recorded value of GCSF fold inhibition relative to solvent control equal to or greater than 0.8 fold for this compound? Cc1cc(=O)oc2c(CN(CC(=O)O)CC(=O)O)c(O)ccc12 [Chemical 1712]
Response: NOT MET

Request: Check this compound for GCSF fold inhibition relative to solvent control at or above 0.8 fold: Cc1cc(C2(c3cc(C)c(O)c(CN(CC(=O)O)CC(=O)O)c3)OC(=O)c3ccccc32)cc(CN(CC(=O)O)CC(=O)O)c1O [Chemical 1773]
Response: NOT MET

Request: Given the entry Nc1c(O)c(S(=O)(=O)O)c(O)c2c1C(=O)c1ccccc1C2=O [Chemical 640] , answer whether its GCSF fold inhibition relative to solvent control meets or surpasses 0.8 fold.
Response: NOT MET

Request: Decide: GCSF fold inhibition relative to solvent control of O=S(=O)(O)c1ccc(-c2ccnc(-c3nnc(-c4ccc(S(=O)(=O)O)cc4)c(-c4ccc(S(=O)(=O)O)cc4)n3)c2)cc1 [Chemical 1648] >= 0.8 fold?
Response: MET

---

System: hGH promoter
Assay Protocol: hGH promoter/luciferase reporter assay (high-throughput screen I), 532 cells
Assay type: cell-based, rat
Condition Notes: transcriptional inhibitors, Table 2; 6 h incubation
I would appreciate it if you labelled entries true (1) when hGH fold inhibition relative to solvent control is 4 fold or higher, otherwise false (0).

Here's what some known entries look like.
>  <Compound>
N#Cc1ccc(Br)cc1

>  <Group Label>
true (1)

$$$$
>  <Compound>
Nc1nc2c(nc(Br)n2[C@@H]2O[C@H](CO)[C@@H](O)[C@H]2O)c(=O)[nH]1

>  <Group Label>
true (1)

$$$$
>  <Compound>
O=C(c1ccccc1)c1ccc(Br)cc1

>  <Group Label>
true (1)

$$$$

We next turn to a different compound, shown below.
Request: hey, is hGH fold inhibition relative to solvent control for this one >= 4 fold? O=S(=O)(O)c1ccc(-c2ccnc(-c3nnc(-c4ccc(S(=O)(=O)O)cc4)c(-c4ccc(S(=O)(=O)O)cc4)n3)c2)cc1
Response: true (1)
